# Tgt: human Fatty Acid Synthase (Homo sapiens)
# Construct: made in house
# Sequence (P49327 whole entry): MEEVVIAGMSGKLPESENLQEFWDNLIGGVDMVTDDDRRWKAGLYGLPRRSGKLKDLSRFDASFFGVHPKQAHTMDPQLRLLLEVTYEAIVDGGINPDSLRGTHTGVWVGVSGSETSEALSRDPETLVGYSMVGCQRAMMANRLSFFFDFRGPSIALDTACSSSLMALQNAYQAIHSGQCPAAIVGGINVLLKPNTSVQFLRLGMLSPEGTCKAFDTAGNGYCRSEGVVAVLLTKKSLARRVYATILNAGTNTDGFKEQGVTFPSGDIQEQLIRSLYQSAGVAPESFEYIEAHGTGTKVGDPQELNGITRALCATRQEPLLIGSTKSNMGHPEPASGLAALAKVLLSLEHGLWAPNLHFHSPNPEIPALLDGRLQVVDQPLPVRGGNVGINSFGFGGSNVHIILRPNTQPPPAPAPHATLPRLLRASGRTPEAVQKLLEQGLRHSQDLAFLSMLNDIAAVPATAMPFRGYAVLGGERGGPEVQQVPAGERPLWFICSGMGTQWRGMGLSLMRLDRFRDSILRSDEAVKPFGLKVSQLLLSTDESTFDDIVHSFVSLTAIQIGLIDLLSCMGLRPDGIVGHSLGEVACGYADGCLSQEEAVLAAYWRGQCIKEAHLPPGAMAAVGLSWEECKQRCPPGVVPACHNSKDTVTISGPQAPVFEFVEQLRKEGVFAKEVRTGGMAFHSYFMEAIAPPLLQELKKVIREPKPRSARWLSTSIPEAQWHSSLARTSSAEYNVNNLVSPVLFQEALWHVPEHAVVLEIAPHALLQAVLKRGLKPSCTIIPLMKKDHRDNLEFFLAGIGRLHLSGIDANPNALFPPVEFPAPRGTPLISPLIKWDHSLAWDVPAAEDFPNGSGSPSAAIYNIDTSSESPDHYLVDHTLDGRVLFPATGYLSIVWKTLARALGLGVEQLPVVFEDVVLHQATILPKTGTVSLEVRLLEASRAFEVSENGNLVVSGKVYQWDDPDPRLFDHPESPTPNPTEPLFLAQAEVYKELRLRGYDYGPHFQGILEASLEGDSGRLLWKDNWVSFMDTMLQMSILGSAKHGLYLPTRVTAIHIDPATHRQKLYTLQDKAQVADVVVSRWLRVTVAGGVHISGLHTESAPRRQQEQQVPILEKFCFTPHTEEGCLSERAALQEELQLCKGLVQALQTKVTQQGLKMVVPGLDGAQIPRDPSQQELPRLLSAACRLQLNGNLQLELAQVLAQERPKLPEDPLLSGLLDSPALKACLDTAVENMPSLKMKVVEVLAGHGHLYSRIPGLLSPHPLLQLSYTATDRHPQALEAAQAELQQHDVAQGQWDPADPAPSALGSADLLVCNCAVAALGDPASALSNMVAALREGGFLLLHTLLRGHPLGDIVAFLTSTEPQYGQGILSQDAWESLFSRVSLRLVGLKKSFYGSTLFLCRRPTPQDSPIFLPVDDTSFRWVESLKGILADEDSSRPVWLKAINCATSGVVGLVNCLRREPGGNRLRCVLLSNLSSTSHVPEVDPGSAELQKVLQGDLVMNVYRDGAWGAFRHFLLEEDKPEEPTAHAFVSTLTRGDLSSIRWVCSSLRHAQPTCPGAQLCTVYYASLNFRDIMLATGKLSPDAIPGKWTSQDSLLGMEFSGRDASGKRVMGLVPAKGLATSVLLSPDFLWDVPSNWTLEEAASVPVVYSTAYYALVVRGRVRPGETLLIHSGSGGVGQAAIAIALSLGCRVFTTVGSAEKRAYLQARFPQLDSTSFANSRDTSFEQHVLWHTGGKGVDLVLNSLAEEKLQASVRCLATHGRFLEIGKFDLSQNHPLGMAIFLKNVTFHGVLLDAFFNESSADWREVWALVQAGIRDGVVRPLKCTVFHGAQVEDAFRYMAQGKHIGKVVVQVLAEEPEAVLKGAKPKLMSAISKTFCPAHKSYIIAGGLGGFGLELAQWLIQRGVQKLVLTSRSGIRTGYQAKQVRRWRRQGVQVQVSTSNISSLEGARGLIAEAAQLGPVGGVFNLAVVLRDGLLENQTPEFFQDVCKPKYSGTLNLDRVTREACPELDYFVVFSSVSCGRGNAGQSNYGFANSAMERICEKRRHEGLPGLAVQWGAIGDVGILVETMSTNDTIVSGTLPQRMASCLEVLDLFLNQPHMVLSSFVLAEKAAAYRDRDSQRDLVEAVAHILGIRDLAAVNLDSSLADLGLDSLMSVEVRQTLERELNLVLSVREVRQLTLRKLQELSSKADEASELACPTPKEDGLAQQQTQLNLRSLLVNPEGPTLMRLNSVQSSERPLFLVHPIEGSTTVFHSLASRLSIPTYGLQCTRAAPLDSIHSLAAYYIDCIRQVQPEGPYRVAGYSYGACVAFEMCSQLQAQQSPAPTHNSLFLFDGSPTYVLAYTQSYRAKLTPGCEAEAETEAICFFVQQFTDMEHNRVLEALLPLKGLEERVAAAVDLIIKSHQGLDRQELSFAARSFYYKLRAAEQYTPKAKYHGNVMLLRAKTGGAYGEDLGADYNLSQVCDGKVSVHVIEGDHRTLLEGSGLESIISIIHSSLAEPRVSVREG
# Assay text: Human FAS enzyme assay (decrease in NADPH fluorescence)
# Format: biochemical
# Test conditions: % inhibition at a concentration of 100 μmolar

Molecule: Cc1ccc(C(=O)N2CCC(c3ccc(C#N)cc3)CC2)cc1NC(=O)NCc1ccncc1
Tgt: human Fatty Acid Synthase (Homo sapiens)
Unit string: %
inhibition at 100 µM: 93.8
//
Molecule: Cc1ccc(C(=O)N2CCC(c3ccc(C#N)cc3)CC2)cc1NC(=O)NCC(=O)N(C)C
Tgt: human Fatty Acid Synthase (Homo sapiens)
Unit string: %
inhibition at 100 µM: 89.9
//
Molecule: Cc1ccc(C(=O)N2CCC(c3ccc(C#N)cc3)CC2)cc1NC(=O)NCC1CCN(C)C1 (centres unmarked)
Tgt: human Fatty Acid Synthase (Homo sapiens)
Unit string: %
inhibition at 100 µM: 90.1
//
Molecule: CCCNC(=O)Nc1cc(C(=O)N2CCC(c3ccc(C#N)cc3)CC2)ccc1C
Tgt: human Fatty Acid Synthase (Homo sapiens)
Unit string: %
inhibition at 100 µM: 90.1
//
Molecule: Cc1ccc(C(=O)N2CCC(c3ccc(C#N)cc3)CC2)cc1NC(=O)NC(C)c1ccc(F)cc1 (centres unmarked)
Tgt: human Fatty Acid Synthase (Homo sapiens)
Unit string: %
inhibition at 100 µM: 87.6
//
Molecule: Cc1ccc(C(=O)N2CCC(c3ccc(C#N)cc3)CC2)cc1NC(=O)NCCCNC(=O)OC(C)(C)C
Tgt: human Fatty Acid Synthase (Homo sapiens)
Unit string: %
inhibition at 100 µM: 83.8
//
Molecule: COc1cccc(CCNC(=O)Nc2cc(C(=O)N3CCC(c4ccc(C#N)cc4)CC3)ccc2C)c1
Tgt: human Fatty Acid Synthase (Homo sapiens)
Unit string: %
inhibition at 100 µM: 99.8
//
Molecule: Cc1ccc(C(=O)N2CCC(c3ccc(C#N)cc3)CC2)cc1NC(=O)NCCN1CCNC1=O
Tgt: human Fatty Acid Synthase (Homo sapiens)
Unit string: %
inhibition at 100 µM: 81.1
